The following compounds are shown together with reported viability, T/C values.
System: 233499-124-R-J3-PDC complex spheroid viability
Assay Explanation: Anticancer human tumor 233499-124-R-J3-PDC patient-derived colon adenocarcinoma cell line growth inhibition [CLK]
Measurement Setup: second compound 0.0316 µM; first compound 3.16 µM; active compounds read low

Compound: CC(=O)O[C@H]1C(=O)[C@@]2(C)[C@H]([C@H](OC(=O)c3ccccc3)[C@]3(O)C[C@H](OC(=O)[C@H](O)[C@@H](NC(=O)c4ccccc4)c4ccccc4)C(C)=C1C3(C)C)[C@]1(OC(C)=O)CO[C@@H]1C[C@@H]2O + CNC(=O)c1ccc(Nc2nc(OC3CCCC3)c3c(-c4ccc5nc(C)oc5c4)c[nH]c3n2)c(OC)c1
viability, T/C [%]: 31.4
//
Compound: C#Cc1c(F)ccc2cc(O)cc(-c3ncc4c(N5CC6CCC(C5)N6)nc(OCC56CCCN5CC(F)C6)nc4c3F)c12 (centres undefined) + CNC(=O)c1ccc(Nc2nc(OC3CCCC3)c3c(-c4ccc5nc(C)oc5c4)c[nH]c3n2)c(OC)c1
viability, T/C [%]: 75.9
//
Compound: CC1(C)CCC(CN2CCN(c3ccc(C(=O)NS(=O)(=O)c4ccc(NCC5CCOCC5)c([N+](=O)[O-])c4)c(Oc4cnc5[nH]ccc5c4)c3)CC2)=C(c2ccc(Cl)cc2)C1 + CNC(=O)c1ccc(Nc2nc(OC3CCCC3)c3c(-c4ccc5nc(C)oc5c4)c[nH]c3n2)c(OC)c1
viability, T/C [%]: 96.5
//
Compound: COc1cccc2c1C(=O)c1c(O)c3c(c(O)c1C2=O)CC(O)(C(=O)CO)CC3OC1CC(N)C(O)C(C)O1 (centres undefined) + CN1CCN(c2cc(C(=O)Nc3cc4cc(-c5cnn(C)c5)ccc4cn3)ccn2)CC1
viability, T/C [%]: 43.2

----------
System: 233499-124-R-J3-PDC complex spheroid viability
Assay Explanation: Anticancer human tumor 233499-124-R-J3-PDC cell line growth inhibition [CLK]; active means viability on the fitted dose curve at most 10% of control; inactive means the rest;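 note: spheroids exposed to the drug combinations for seven days; percent viability relative to DMSO vehicle control wells taken as 100%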
Measurement Setup: second compound 10 µM; first compound 0.03 µM
Labels: Y for active, N for inactive

Compound: C=CC(=O)Nc1cc(Nc2nccc(-c3cn(C)c4ccccc34)n2)c(OC)cc1N(C)CCN(C)C + CNC(=O)c1ccc(Nc2nc(OC3CCCC3)c3c(-c4ccc5nc(C)oc5c4)c[nH]c3n2)c(OC)c1
Assigned Class: N

Compound: C=CC(=O)Nc1cc(Nc2nccc(-c3cn(C)c4ccccc34)n2)c(OC)cc1N(C)CCN(C)C + CN1CCN(c2cc(C(=O)Nc3cc4cc(-c5cnn(C)c5)ccc4cn3)ccn2)CC1
Assigned Class: Y

Compound: CC(C)CC(NC(=O)C(Cc1ccccc1)NC(=O)c1cnccn1)B(O)O (stereo unspecified) + CNC(=O)c1ccc(Nc2nc(OC3CCCC3)c3c(-c4ccc5nc(C)oc5c4)c[nH]c3n2)c(OC)c1
Assigned Class: Y

Compound: NC(=O)C(=Cn1cnc(-c2cc(C(F)(F)F)cc(C(F)(F)F)c2)n1)c1cncnc1 + CN1CCN(c2cc(C(=O)Nc3cc4cc(-c5cnn(C)c5)ccc4cn3)ccn2)CC1
Assigned Class: Y

Compound: NC(=O)C(=Cn1cnc(-c2cc(C(F)(F)F)cc(C(F)(F)F)c2)n1)c1cncnc1 + CNC(=O)c1ccc(Nc2nc(OC3CCCC3)c3c(-c4ccc5nc(C)oc5c4)c[nH]c3n2)c(OC)c1
Assigned Class: N

Compound: CC(C)CC(NC(=O)C(Cc1ccccc1)NC(=O)c1cnccn1)B(O)O (stereo unspecified) + CN1CCN(c2cc(C(=O)Nc3cc4cc(-c5cnn(C)c5)ccc4cn3)ccn2)CC1
Assigned Class: Y
